# pIC50 per record follows
system: B16F10 cells; assay: Cell viability of B16F10 cells; format: cell-based; conditions: Mus musculus, B16-F10; after 24 and 48 hours incubation
pIC50: −log10 of the molar value. Where a name gives a salt, the structure may show the parent alone.
PROPERTY MEASURED: pIC50

• CC[C@H]1OC(=O)[C@H](C)[C@@H](O[C@H]2C[C@@](C)(OC)[C@@H](O)[C@H](C)O2)[C@H](C)[C@@H](O[C@@H]2O[C@H](C)C[C@H](N(C)C)[C@H]2O)[C@](C)(O)C[C@@H](C)C(=O)[C@H](C)[C@@H](O)[C@]1(C)O [Erythromycin] = 5.00
• C1CCC(C(CC2CCCCN2)C2CCCCC2)CC1 (centres unmarked) [Perhexiline, Perhexiline maleate] = 5.00

###

tested on: SMC; assay: Cell proliferation assay (crystal violet), SMC; format: cell-based; settings: 72 hours, OD 595 nm
pIC50: −log10 of the molar value. Where a name gives a salt, the structure may show the parent alone.
PROPERTY MEASURED: pIC50

* C1CCC(C(CC2CCCCN2)C2CCCCC2)CC1 (centres unmarked) [Perhexiline, Perhexiline maleate] | 4.85

###

tested on: RENCA; assay: Cytoviability assay (resazurin), RENCA; format: cell-based; details: 24 hours after treatment, read-out: IC50 cell viability RENCA
pIC50: −log10 of the molar value. Counter-ions that a name gives are not always drawn.
PROPERTY MEASURED: pIC50

• C1CCC(C(CC2CCCCN2)C2CCCCC2)CC1 (stereo not shown) [Perhexiline, Perhexiline maleate] = 5.30

###

test system: HDMEC; assay: Cell proliferation assay (crystal violet), HDMEC; format: cell-based; details: 72 hours, OD 595 nm
Counter-ions that a name gives are not always drawn.
PROPERTY MEASURED: IC50

- CC[C@H]1OC(=O)[C@H](C)[C@@H](O[C@H]2C[C@@](C)(OC)[C@@H](O)[C@H](C)O2)[C@H](C)[C@@H](O[C@@H]2O[C@H](C)C[C@H](N(C)C)[C@H]2O)[C@](C)(O)C[C@@H](C)C(=O)[C@H](C)[C@@H](O)[C@]1(C)O: ~100 µM
- C1CCC(C(CC2CCCCN2)C2CCCCC2)CC1 (centres unmarked) [Perhexiline, Perhexiline maleate]: 11 µM

Entry source: patent US20070142433A1
